B1: Subtilisin-chymotrypsin inhibitor-2A, P01053 (parent)
chain: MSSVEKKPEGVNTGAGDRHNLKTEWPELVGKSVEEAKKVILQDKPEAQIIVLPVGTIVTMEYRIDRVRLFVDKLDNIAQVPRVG

Variants of: B1
DETAILS: Hordeum vulgare; pH 3.5; Thermal; DSC; MES 450 mM; reversible: yes; structure 2CI2; whole UniProt chain shown
Reported unfolding enthalpy (van 't Hoff) values for a set of variants
Entry rule: numbers only, all in kcal/mol.

Please review the entries below; each comes with its answer.
# BIOPOLYMER_SEQUENCE, unfolding enthalpy (van 't Hoff) (kcal/mol)
records = [
    ("MSSVEKKPEGVNTGAGDRHNLKTEWPELVGKSVEEAKKVILQDKPEAQIIVLPVGTIVTMEYRIDRVRLFVDKLDNAAQVPRVG", 46.8),
    ("MSSVEKKPEGVNTGAGDRHNLKTEWPELVGKSVEEAKKVILQDKPEAQIIVLPVGTIVTMEYRIDRARLFVDKLDNIAQVPRVG", 35.8),
    ("MSSVEKKPEGVNTGAGDRHNLKTEWPELVGKSVEEAKKVILQDKPEAQIIVLPVGTIVTMEYRIDRVRAFVDKLDNIAQVPRVG", 46.9),
    ("MSSVEKKPEGVNTGAGDRHNLKTEWPELVGKSVEEAKKVILQDKPEAQAIVLPVGTIVTMEYRIDRVRLFVDKLDNIAQVPRVG", 46.9),
    ("MSSVEKKPEGVNTGAGDRHNLKTEWPELVGKSVEEAKKVILQDKPEAQVIVLPVGTIVTMEYRIDRVRLFVDKLDNIAQVPRVG", 61.6),
]

Here's the next entry for you.
Asked: State its unfolding enthalpy (van 't Hoff): `MSSVEKKPEGVNTGAGDRHNLKTEWPELVGKSVEEAKKVVLQDKPEAQIIVLPVGTIVTMEYRIDRVRLFVDKLDNIAQVPRVG`
Given back: 62.5
